Conditions: in ethanol, 298.15 K
metric: solubility (mole fraction)
Please reply with the value in numeric form only.

Per the records, this compound ( CC[n+]1ccccc1.F[P-](F)(F)(F)(F)F ) has solubility (mole fraction) equal to 0.000324

---

Details: in ethanol, 308.15 K
metric: solubility (mole fraction)
Please reply with the value in numeric form only.

Per the records, this compound ( CC[n+]1ccccc1.F[P-](F)(F)(F)(F)F ) has solubility (mole fraction) equal to 0.00061

---

Conditions: in ethanol, 313.15 K
metric: solubility (mole fraction)
Please reply with the value in numeric form only.

Per the records, this molecule ( CC[n+]1ccccc1.F[P-](F)(F)(F)(F)F ) has solubility (mole fraction) equal to 0.000718

Values compiled from BigSolDB 2.1.
